test system: KM12 colon; assay: NCI tumour cell line growth inhibition, 48 h
Quick reference: TGI of the listed items.

> print(dat)
                                   molecule  recorded.value
1  CCOC(=O)/C=C(\C(=O)OCC)n1ccc(=O)n(CC(=O)OCC)c1=O         30.8 µM

TGI for CC#CC1C(OC(=O)c2ccccc2)CCCC1(CI)N=[N+]=[N-] (configuration not stated) is > 100 µM

The molecule listed as `O=C1C(=C(I)I)c2ccccc2-c2ccccc21` shows TGI equal to 24.6 µM

Please fill in: TGI reported for OCC1OC(n2cnc3c(=S)nc[nH]c32)C(O)C1O (configuration not stated) = > 2500 µM

Entry under test: `CC(C)c1ccc(Nc2nccc(-c3cnn4ncccc34)n2)cc1` . Its TGI was 1.83 µM

In plain terms, `CCN(CC)C(=S)N=Nc1c(O)[nH]c2ccccc12` has a documented TGI of 10.5 µM

Recorded result, CCOC(=O)C1(C/C=C\CBr)CCCCCCCCCCC1=O (configuration not stated) , TGI: 28.8 µM

* * *

test system: SNB-19 CNS; assay: NCI tumour cell line growth inhibition, 48 h
Attribute: TGI

Consider the following illustrative entries.
compound	TGI
COC(=O)C1=C(CCCCO[Si](C)(C)C(C)(C)C)NC(=O)N2[C@@H](CCOCc3ccccc3)CC[C@H]12	> 100 µM
CCc1nnc(-c2nsc3ccccc23)s1	> 100 µM
c1ccc2c(c1)nc1n2C2CCC(C2)N1 (stereo not given)	> 10 µM
CCOP(=O)(CN=C(c1ccccc1)c1ccccc1)OCC	> 100 µM

get_value(item= `Nc1ccc(-c2ccc(N)cc2I)c(I)c1` , readout=TGI) returns 77.3 µM

For reference, reported TGI for `CCN(CC)C(=S)N=Nc1c(O)[nH]c2ccccc12` stands at 16 µM

Measured TGI of `O=C(COc1cccc(/C=C2\COc3ccc(Cl)cc3C2=O)c1)c1ccc(Cl)cc1` : 27.7 µM

* * *

system: HT29 colon; test: NCI tumour cell line growth inhibition, 48 h; in the data active means GI50 below about 0.43 µM; inactive means the rest
Tick one outcome: yes = active, no = inactive

These solved cases illustrate the format of a correct answer.
> print(dat)
                                   compound  category
1  O=C(CN(/C=C/C(=O)C(F)(F)F)c1ccccc1)c1ccc(Cl)c(Cl)c1        no
2  O=C(c1cccnc1)c1cc(-c2ccccn2)c(=O)n2ccccc12        no
3  Nc1c(C(=O)Nc2ccccc2)sc2nc3c(cc12)CN(Cc1ccccc1)CC3        no
4  CN(C)CC1CCCCCC(CN(C)C)C1=O (stereo not given)        no

In this assay, the call recorded for `COc1ccc(-c2nn(-c3cccc(Cl)c3)cc2-c2cc(-c3ccccc3)nc(N)n2)cc1` was what?
no

Dear colleague, could you share the recorded outcome for COc1cc2c3c(n(C)c(=O)c2cc1OC)-c1cc2c(cc1/C3=C\C(N)CN)OCO2 (stereo not given) when you have a moment?
no

Call for entry `Cn1cc(-c2ccc(-c3cn(C)c4ccc(Cl)cc34)s2)c2cc(Cl)ccc21` :
no

* * *

Measured TGI accompanies every entry in the list below.
test system: SNB-19 CNS; assay: NCI tumour cell line growth inhibition, 48 h

The measured TGI associated with CCCCN(CCCC)c1ccc(C(=NC(C)CCCN(CC)CC)c2ccc(N(C)C)cc2)cc1 (stereo not given) reads 2.82 µM

For reference, reported TGI for `Cc1[nH]c2ccccc2c1CCNCc1ccc(/C=C/C(=O)NO)cc1` stands at 0.323 µM

Documented TGI of `CN(C(=O)c1ccncc1)c1ccccc1` : > 100 µM

Reported TGI for COc1ccc(C2(O)c3ccccc3C(=O)N(C)C2(O)c2ccc(OC)cc2)cc1 (stereo not given) was > 100 µM

* * *

test system: HOP-92 NSCLC; assay: NCI tumour cell line growth inhibition, 48 h
Recorded measurements of TGI, one per entry
Hi! Could you send only the number? It should be in µM, unit omitted.

Study these solved cases before continuing.
> print(dat)
                                   compound  recorded.endpoint  recorded.value
1  CN(C)c1ccc(C(=C2C=CC(=[N+](C)C)C=C2)c2ccc(N(C)C)cc2)cc1                TGI           0.461
2  C/C(=N\NC(=S)Nc1ccc(C)cc1)c1nc2ncccc2[nH]1                TGI            24.1
3  CCOC(=O)/C=C(\C(=O)OCC)n1ccc(=O)n(CC(=O)OCC)c1=O                TGI            3.06
4  Cc1c(Cl)cccc1NC1=C(Cl)C(=O)N(Cc2ccccc2)C1=O                TGI            14.9

The measured TGI associated with `CCCOC(=O)CCn1c(SC)nc2[nH]cc(-c3ccccc3)c2c1=O` reads 40.4

According to the records, this compound `Nc1n[nH]c2cccc(C#Cc3cccc(C(=O)Nc4cc(CN5CCOCC5)cc(C(F)(F)F)c4)c3)c12` displays TGI of 9.61

TGI recorded for this compound, CCCCNC(=O)NS(=O)(=O)c1ccc(N2N=C(c3cc(C)ccc3C)CC2c2cc(OC)c(OC)c(OC)c2)cc1 (stereo unspecified) , is 4.63

* * *

Let's look at some compounds and their measured log10 TGI.
test system: SF-539 CNS; assay: NCI tumour cell line growth inhibition, 48 h
Please note: log10 values; quantity TGI; unit µM.

Some solved cases for reference:
compound	log10 TGI
CCN(CC)C(=S)N=Nc1c(O)[nH]c2ccccc12	0.38
COC(=O)C1=C(OC(=O)c2ccc(Cl)cc2)C(C(=O)OC)[C@@]2(O)[C@@H](C(=O)OC)C(c3ccccc3Cl)C[C@@H]1[C@@H]2C(=O)OC (stereo not given in full)	1.79
CC(=O)O[C@H]1CC[C@@]2(C)[C@@H](CC[C@@H]3[C@@H]2CC[C@]2(C)C=C(C=O)C[C@@H]32)C1	1.10

Quick note, log10 TGI for COc1cc(C2CC(c3ccc(N(C)C)cc3)=NN2C(C)=O)cc(OC)c1OC (stereo not given) landed at 0.73

Sample CCCCCCCOc1c(OC)cc(C2CC(=O)Nc3c2c(C)nn3-c2nc3ccccc3[nH]2)cc1OC (stereo not given) ; log10 TGI observed: 0.49

// log10 TGI value for `O=c1oc(-c2ccccc2)c(-c2ccccc2)n1-c1ccc(Br)cc1` : 1.73

Just so you know, measured log10 TGI for `c1ccc(C2OCCO2)c(OCCOc2cc(OCCOc3ccccc3C3OCCO3)c(OCCOc3ccccc3C3OCCO3)cc2OCCOc2ccccc2C2OCCO2)c1` came out at 1.51

Lookup result for `c1ccc2cc(CNCCOCCOCCNCc3ccc4ccccc4c3)ccc2c1` ; measured log10 TGI: 0.57

* * *

tested on: SF-295 CNS; experiment: NCI tumour cell line growth inhibition, 48 h
TGI values by entry

> print(dat)
                        structure.as.smiles  recorded.value
1  Cc1n[nH]c(=O)n1/N=C\CC/C=N\n1c(C)n[nH]c1=O        > 100 µM
2          CC(C)(C)OC(=O)N/N=C(/N)Cc1ccccc1        > 100 µM

Here's the next entry for you.
compound `CCN(CC)C(=S)N=Nc1c(O)[nH]c2ccccc12` , TGI observed: 11.5 µM

* * *

system: SW-620 colon; assay: NCI tumour cell line growth inhibition, 48 h
*1 amine or outer side, *2 acyl side, *3 side chain or, on linkers, in order; H or OH if unused. Where a SMILES comes first, the peptide text is derived from it. [ ]: non-standard residue; d: D form. X33 = C=CCC(O[*:1])C(=O)[*:2]; NMeV = CN[CH](C(=O)O)C(C)C; NMeA = CN[CH](C)C(=O)O; βAla = NCCC(=O)O
TGI reference

Reported TGI of `CCNCCNc1cc(C2CCCCC2)c(C#N)c2nc3ccccc3n12` : 3.15 µM

Form: compound = `Cc1ccc(S(=O)(=O)Nn2c(S)c(C#N)c(-c3ccc([N+](=O)[O-])cc3)c(C#N)c2=O)cc1` ; TGI = 35.1 µM

Recorded TGI (compound `Cn1cnc(N2CCCC2)c(C#N)c1=O` ): > 100 µM

Entry CC(c1ccccc1)/[N+]([O-])=C/c1ccccc1 (centres undefined) , TGI reported as > 100 µM

Just so you know, measured TGI for `COC(=O)c1cc(-c2cccn2C)c2c(c1C(=O)OC)c1ccccc1n2C` came out at > 100 µM

Noted for `Nc1n[nH]c2cccc(C#Cc3cccc(C(=O)Nc4cc(CN5CCOCC5)cc(C(F)(F)F)c4)c3)c12` : its TGI reads 24.3 µM

Input `C/C(=N\NC(=S)NC(C)(C)C)c1ccccn1` . Output TGI: > 100 µM

TGI recorded for this compound, CC#CC1C(OC(=O)c2ccccc2)CCCC1(CI)N=[N+]=[N-] (centres undefined) , is > 100 µM

Memo: `COC(=O)CC(=O)Nc1sccc1S(=O)(=O)c1ccccc1` , reported TGI: > 100 µM

Notebook: C=CCC1OC(=O)CCNC(=O)C(C)N(C)C(=O)C(C(C)C)N(C)C(=O)C(C(C)CC)NC(=O)C2CCCN2C1=O (centres undefined) (cyclo([X33]PI[NMeV][NMeA][βAla]); configuration not given here) , TGI read as > 100 µM

Looking up COC(=O)C1(Cc2ccc3c(c2)CCC3)Cc2ccc3c(c2C1)CCC3 (centres undefined) , I found its TGI recorded as 69.7 µM
